B1: SPSB4 (parent)
chain: LDMDEGTLSFIVDGQYLGVAFRGL

Variants of: B1
ASSAY_SUMMARY: protein stability index of a GFP-peptide fusion (GPS, HEK-293T) (PSI 1-6); higher = more stable;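 further: lentivirally expressed fusions sorted by FACS into six bins by GFP to DsRed ratio, PSI derived from sequencing read proportions per bin multiplied by bin number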
MEASUREMENT_SETUP: c terminus: a fixed tail appended
The label depends only on protein stability index: true (1) if it is at least 2, false (0) if it is smaller.

Use these answered entries as a reference point.
>>> cat("S9D")
"false (0)"
>>> cat("E5P")
"false (0)"
>>> cat("F21W")
"true (1)"
>>> cat("V19F")
"true (1)"

-- ask Evaluate `D4S` : protein stability index at minimum 2?
-- reply true (1)

-- ask Evaluate `G23E` : protein stability index at minimum 2?
-- reply true (1)

-- ask Evaluate `M3Q` : protein stability index at minimum 2?
-- reply true (1)

-- ask Evaluate `I11F` : protein stability index at minimum 2?
-- reply true (1)

-- ask Evaluate `D2M` : protein stability index at minimum 2?
-- reply true (1)

-- ask Evaluate `V19I` : protein stability index at minimum 2?
-- reply true (1)

-- ask Evaluate `S9V` : protein stability index at minimum 2?
-- reply false (0)

-- ask Evaluate `Y16G` : protein stability index at minimum 2?
-- reply false (0)

-- ask Evaluate `V19Y` : protein stability index at minimum 2?
-- reply true (1)

-- ask Evaluate `R22N` : protein stability index at minimum 2?
-- reply true (1)

-- ask Evaluate `V12F` : protein stability index at minimum 2?
-- reply false (0)

-- ask Evaluate `V19T` : protein stability index at minimum 2?
-- reply true (1)

-- ask Evaluate `R22A` : protein stability index at minimum 2?
-- reply true (1)

-- ask Evaluate `D13M` : protein stability index at minimum 2?
-- reply true (1)

-- ask Evaluate `D2S` : protein stability index at minimum 2?
-- reply true (1)

-- ask Evaluate `G14E` : protein stability index at minimum 2?
-- reply false (0)

From: the supplement of paper PMC10567573
